Tested on: XF498
assay name: NCI tumour cell line growth inhibition, 48 h
The source made the active and inactive calls. Rule as the data show it: active = GI50 up to about 1.1 µM and inactive = higher.
Listing of recorded GI50 by entry.
observation type: GI50

- compound: "O=C(c1ccccc1)c1nnn(Cc2cccc(Cl)c2)c1C(=O)c1ccccc1"
  observation type: "GI50"
  measured: "> 100 µM (inactive)"
- compound: "CCCCNC(=NC#N)NCCCC"
  observation type: "GI50"
  measured: "> 100 µM (inactive)"
- compound: "O=c1nc2n(c3nsnc13)CCO2"
  observation type: "GI50"
  measured: "> 100 µM (inactive)"
- compound: "CCOC(=O)C1C=C2O[C@@H]3OC4(CCCCC4)O[C@@H]3C2[C@H]2C(=O)C=CC(=O)[C@@]12C(=O)OC (stereo not given in full)"
  observation type: "GI50"
  measured: "7.29 µM (inactive)"
- compound: "COC(=O)c1c(-c2ccccc2)cc2c3cc(-c4ccccc4)c(C(=O)OC)n3c3ccccc3n12"
  observation type: "GI50"
  measured: "> 100 µM (inactive)"

* * *

Listing of recorded GI50 by entry.
Tested on: SR
assay name: NCI tumour cell line growth inhibition, 48 h
Active and inactive are the calls of the source. No stated cut-off is given here; in the data, active = GI50 up to about 1.1 µM and inactive = higher.

- compound: "COc1ccc2c3c([nH]c2c1)[C@H]1C[C@H]2[C@H](C[C@@H](O)[C@H](OC)[C@H]2C(=O)O)CN1CC3"
  GI50: "> 100 µM (inactive)"
- compound: "CN(C)CCN(C)CC1COC(C)(C)O1 (stereo not given)"
  GI50: "> 100 µM (inactive)"
- compound: "O=C(c1ccccc1)c1nnn(Cc2cccc(Cl)c2)c1C(=O)c1ccccc1"
  GI50: "> 100 µM (inactive)"
- compound: "N#CCCN(c1ccc(/C=N/c2ccccc2)cc1)S(=O)(=O)c1ccccc1"
  GI50: "> 100 µM (inactive)"
- compound: "C=C1CC2CCCC12C=O (stereo not given)"
  GI50: "> 10 µM (inactive)"
- compound: "Oc1ccccc1/C=N/c1ccc(-c2nc3ccccc3s2)cc1"
  GI50: "33.7 µM (inactive)"
- compound: "O=C(c1ccccc1)c1c(-c2ccccc2)n(-c2ccccc2)[nH]c(=O)c1=O"
  GI50: "23.8 µM (inactive)"
- compound: "COc1ccc2c(c1)C1OCCNC1CC2 (stereo not given)"
  GI50: "> 100 µM (inactive)"
- compound: "CC(=O)O[C@H]1CC[C@@]2(C)C(=CC[C@@H]3[C@@H]2CC[C@]2(C)c4c(C)n[nH]c4C[C@@H]32)C1"
  GI50: "22.3 µM (inactive)"
- compound: "c1csc(-c2ccsc2-c2ccsc2)c1"
  GI50: "33.1 µM (inactive)"

* * *

Tested on: SK-MEL-2
assay name: NCI tumour cell line growth inhibition, 48 h
Activity calls are given as the source filed them. Rule as the data show it: active = GI50 up to about 1.1 µM and inactive = higher.
Classes used: active, inactive

- molecule: "O=C(/C=C/c1csc(-c2ccccc2)n1)NCc1ccc(C(=O)NCc2ccccc2)cc1"
  system tested: "SK-MEL-2"
  assigned label: "inactive"
- molecule: "CC(NC(=O)C(N)CC(=O)O)NC(=O)C1CCC1 (stereo not given)"
  system tested: "SK-MEL-2"
  assigned label: "inactive"
- molecule: "O=C(C1OC1c1ccc([N+](=O)[O-])cc1)C12CC3CC(CC(C3)C1)C2 (stereo not given)"
  system tested: "SK-MEL-2"
  assigned label: "inactive"
- molecule: "O=C1O/C(=C\\C=C\\CO)C=C1/C=C/CO [LISSOCLINOLIDE]"
  system tested: "SK-MEL-2"
  assigned label: "inactive"
- molecule: "NS(=O)(=O)c1ccc(NNc2c3ccccc3nc3c(C(=O)Nc4ccc(S(=O)(=O)Nc5ncccn5)cc4)cccc23)cc1"
  system tested: "SK-MEL-2"
  assigned label: "inactive"
- molecule: "CN(CCNC(=O)c1c[nH]c2c1Cc1ccccc1-2)CCNC(=O)c1c[nH]c2c1Cc1ccccc1-2"
  system tested: "SK-MEL-2"
  assigned label: "inactive"
- molecule: "CCC1CN(C(=O)c2ccccc2)C(Cc2c[nH]c3ccccc23)C(=O)C1CC(=O)OC (stereo not given)"
  system tested: "SK-MEL-2"
  assigned label: "inactive"
- molecule: "CNC(=O)/C=C/C1=CN2C(=O)c3ccc(C)c(O)c3NC(OC)C2C1 (stereo not given)"
  system tested: "SK-MEL-2"
  assigned label: "active"
- molecule: "C[Si](C)(C)c1ccc(CC2(Cc3ccc([Si](C)(C)C)cc3)CCNC2)cc1"
  system tested: "SK-MEL-2"
  assigned label: "inactive"
- molecule: "Cc1nc(-c2cc3c(ccc4ccccc43)oc2=O)cc2c1c(=O)oc1ccc3ccccc3c12"
  system tested: "SK-MEL-2"
  assigned label: "inactive"

* * *

Tested on: M14
assay name: NCI tumour cell line growth inhibition, 48 h
Active and inactive are the calls of the source. Cut-off read from the data, not from the text of the source: active = GI50 up to about 1.1 µM and inactive = higher.
Classes used: active, inactive

- molecule: "CC(C)(C)c1cc(CC2C(=O)c3ccccc3C2=O)cc(C(C)(C)C)c1O"
  assigned label: "inactive"
- molecule: "Cc1ccc([N+](=O)[O-])cc1S(=O)(=O)Nc1ccc(C2=NOC(c3ccccc3)C2)cc1 (stereo not drawn)"
  assigned label: "inactive"
- molecule: "CCN(CC)C(=S)SNCCc1ccc(S(N)(=O)=O)cc1"
  assigned label: "inactive"
- molecule: "COC(=O)C(Cc1ccc(OC)cc1O)NC(=O)OC(C)(C)C (stereo not drawn)"
  assigned label: "inactive"
- molecule: "CC(C)(C)c1ccc(OCCOCCOc2ccc(C(C)(C)C)cc2S(N)(=O)=O)c(S(N)(=O)=O)c1"
  assigned label: "inactive"
- molecule: "Cn1c(SCc2c[nH]c3ccccc23)nnc1-c1ccc(Cl)cc1Cl"
  assigned label: "inactive"
- molecule: "OCCNCNc1nc(NCNCCO)nc(N(CNCCO)CNCCO)n1"
  assigned label: "inactive"
- molecule: "CCSC(=O)N1c2ccc(OC)cc2C=CC1C#N (stereo not drawn)"
  assigned label: "active"
- molecule: "CCCCCCCCCCCCCC(=S)N/C=C/OC"
  assigned label: "inactive"
- molecule: "C/C(CC(=O)Nc1cc(Cl)c(Cl)cc1Cl)=N\\NC(N)=O"
  assigned label: "inactive"
- molecule: "COc1cc(Br)c(CC2NCCc3cc(OC)c(OC)cc32)cc1OC (stereo not drawn)"
  assigned label: "inactive"
- molecule: "ON[C@H]1C[C@@H](n2cnc3c(NC4CC4)ncnc32)[C@H](O)[C@@H]1O"
  assigned label: "inactive"
- molecule: "O=C(O)c1cnc2cc(OCc3ccccc3)ccc2c1O"
  assigned label: "inactive"

* * *

Test system: HT-29
assay name: NCI tumour cell line growth inhibition, 48 h
Calls of active or inactive are those of the source. No stated cut-off is given here; in the data, active = GI50 up to about 1.1 µM and inactive = higher.
Classes used: active, inactive

- molecule: "N#Cc1ccc(Oc2nc3ccc(C(F)(F)F)cc3nc2-c2ccccc2)cc1"
  system tested: "HT-29"
  assigned label: "inactive"
- molecule: "CC(C)(C)OC(=O)NC(Cc1ccc(O)cn1)C(N)=O (stereo not given)"
  system tested: "HT-29"
  assigned label: "inactive"
- molecule: "C/C(CC(=O)Nc1cc(Cl)c(Cl)cc1Cl)=N\\NC(N)=O"
  system tested: "HT-29"
  assigned label: "inactive"
- molecule: "Nc1nc(N)c(-c2ccccc2)c(C(=O)Nc2ccc(Cl)c(Cl)c2)n1"
  system tested: "HT-29"
  assigned label: "inactive"
- molecule: "Cc1cc(N(CCC#N)CCC#N)ccc1/C=C1\\SC(=S)NC1=O"
  system tested: "HT-29"
  assigned label: "inactive"
- molecule: "OC/C=C/[C@H](OCc1ccccc1)[C@H](/C=C/CO)OCc1ccccc1"
  system tested: "HT-29"
  assigned label: "inactive"
- molecule: "Cc1nn(C(=O)Cc2ccccc2)c2c1C(c1ccc3ccccc3c1O)SC(=N)N2 (stereo not given)"
  system tested: "HT-29"
  assigned label: "inactive"
- molecule: "Cc1ccc(NC(=O)SCCC(=O)O)cc1"
  system tested: "HT-29"
  assigned label: "inactive"
- molecule: "CC(=O)NC1C(OCc2ccccc2)OC(CO)C(O)C1OC(C)C(=O)N[C@@H](C)C(=O)N[C@H](CCC(=O)OCCNc1c2ccccc2nc2cccc([N+](=O)[O-])c12)C(N)=O (stereo not given in full)"
  system tested: "HT-29"
  assigned label: "active"
- molecule: "OCC(O)C(O)C(C=NNc1ncnc2ccc(Br)cc12)=NNc1ncnc2ccc(Br)cc12 (stereo not given)"
  system tested: "HT-29"
  assigned label: "active"
- molecule: "O=C(Nc1cccc([N+](=O)[O-])c1)c1nnn(-c2cccc([N+](=O)[O-])c2)c1O"
  system tested: "HT-29"
  assigned label: "inactive"
- molecule: "CCOC(=O)C1(C/C=C\\CBr)CCCCCCCCCCC1=O (stereo not given)"
  system tested: "HT-29"
  assigned label: "inactive"
- molecule: "CN(CCNC(=O)c1c[nH]c2c1Cc1ccccc1-2)CCNC(=O)c1c[nH]c2c1Cc1ccccc1-2"
  system tested: "HT-29"
  assigned label: "inactive"
- molecule: "CCOC(=O)[C@@]12C(C)=CC(=O)O[C@]1(C)C[C@H]2C#N"
  system tested: "HT-29"
  assigned label: "inactive"
- molecule: "CCOCC(=O)N[C@H]1CCc2cc(OC(=O)COCC)c(OC)c(OC)c2-c2ccc(SC)c(=O)cc21"
  system tested: "HT-29"
  assigned label: "active"
- molecule: "COC(=O)c1c(-c2ccccc2)cc2c3cc(-c4ccccc4)c(C(=O)OC)n3c3ccccc3n12"
  system tested: "HT-29"
  assigned label: "inactive"
- molecule: "COc1cc([C@@H]2OC[C@@H]3C(c4cc(OC)c5c(c4)OCO5)OC[C@@H]32)cc(OC)c1OC (stereo not given in full)"
  system tested: "HT-29"
  assigned label: "inactive"
- molecule: "C=CC[C@H]1O[Si](C(C)(C)C)(C(C)(C)C)[C@H](C)[C@H]1C"
  system tested: "HT-29"
  assigned label: "inactive"
- molecule: "COc1ccc(N/N=C/C2=CC(C)(C)C(C#N)(C#N)C(O)=C2C#N)cc1"
  system tested: "HT-29"
  assigned label: "inactive"
- molecule: "CCOC(=O)C(=[N+]=[N-])C(=O)CSC#N"
  system tested: "HT-29"
  assigned label: "inactive"

// provenance: ChEMBL document CHEMBL1201862
